Ref: ChEMBL document CHEMBL1921682

Test system: Aspergillus niger
assay_name: Antifungal activity against Aspergillus niger NCIM 1196 by agar diffusion method
Type: functional
// values below are reported MIC

| structure | measured_on | MIC / µg/mL |
| --- | --- | --- |
| Cc1c(NCc2nnc(-c3ccc(Cl)cc3)o2)c(=O)n(-c2ccccc2)n1C | Aspergillus niger | 256 |
| COc1ccc(-c2nnc(CNc3c(C)n(C)n(-c4ccccc4)c3=O)o2)cc1 | Aspergillus niger | 16 |
| Cc1c(NCc2nnc(-c3ccccc3O)o2)c(=O)n(-c2ccccc2)n1C | Aspergillus niger | 8 |
| Cc1c(NCc2nnc(-c3ccc(N)cc3)o2)c(=O)n(-c2ccccc2)n1C | Aspergillus niger | 128 |
| Cc1cccc(-c2nnc(CNc3c(C)n(C)n(-c4ccccc4)c3=O)o2)c1 | Aspergillus niger | 128 |
